Assay: Human HepG2 cell viability assay in 384 well format
Type: toxicity, cell-based
Set-up: dose 125 nL, time 70.5 hour; concentration not given beside the values
Settings: HepG2 cells, read-out: Inhibition
// classify: if (cytotoxicity at 70.5 h < -10%) true else false

The examples below pair each entry with its known result.
>>> category("Cc1cnn(CC2CCCN2C(=O)c2cccc(-n3cnnn3)c2)c1 (stereo unspecified)")
"true"
>>> category("COc1ccc2c(c1)OCC(CNC(=O)c1cnc(O)cn1)C2 (stereo unspecified)")
"false"
>>> category("O=C(NCCNc1ncccn1)C1CCN(C(=O)C2CC2)CC1")
"true"
>>> category("c1ccc(CN2CCN(Cc3cnc(C4CCCCO4)nc3)CC2)cc1 (stereo unspecified)")
"false"
>>> category("CS(=O)(=O)c1snnc1C1CCCN(Cc2ccncc2)C1 (stereo unspecified)")
"true"

### Prompt Hi there! Is cytotoxicity at 70.5 h for CCc1cnc(NC(=O)NC2CCN(C3CCCC3)CC2)s1 below -10%, do you know?
### Response false

Every entry's value here was drawn from ChEMBL document CHEMBL3507680.
